These entries and their values trace back to the supplement of paper PMC10724198.

The entries below are paired with their reported protein stability index.
Test system: Saccharomyces cerevisiae
Assay: protein stability index of tFT-peptide fusion (C-terminal peptide) (PSI (0-1 scale)); higher = more stable (slower turnover)
Settings: genetic background: wild type; temperature: 30 C
property.label: protein stability index

> print(dat)
                          primary.sequence           property.label  result
1  QEGNRMCIWMSG [YFL015C C-terminal 12 aa]  protein stability index     0.7
2   STIRRLREMVEA [RPL43A C-terminal 12 aa]  protein stability index   0.539
3     GVETIAKCIDLL [CAR2 C-terminal 12 aa]  protein stability index   0.698
4   EMNNIIAASRRH [RPL36A C-terminal 12 aa]  protein stability index   0.713
5     HDRSESDSDLDI [PLP1 C-terminal 12 aa]  protein stability index   0.677
6  SRFRTNIAFITQ [YJL015C C-terminal 12 aa]  protein stability index   0.701

----------
Tested on: Saccharomyces cerevisiae
Assay: protein stability index of tFT-peptide fusion (C-terminal peptide) (PSI (0-1 scale)); higher = more stable (slower turnover)
Conditions: genetic background: wild type; temperature: 30 C
Use Condition met when the recorded protein stability index is no lower than 0.7; use Condition not met when it is lower.

> print(dat)
    primary.sequence              group
 1      AISPAPRVSPTP      Condition met
 2      LLFGMRPMLFSF  Condition not met
 3      AGGLLIGSVGVG  Condition not met
 4      ALDACLYLSSGL  Condition not met
 5      YPLPPLFLPLLL  Condition not met
 6      GLASLTVGAASV  Condition not met
 7      SIRPVRLSWVRL  Condition not met
 8      SRNVGRWSLRVV  Condition not met
 9      PSPFDTPPSSGQ      Condition met
10      FFLLLVSVLSGW  Condition not met
11      RNWCHGTVLNRL      Condition met
12      GGGSASGWRAAA  Condition not met
13      FGTKHFGGWGGV      Condition met
14      MRIMERWVMGGG      Condition met
15      VWFEAGLGWFFL      Condition met
16      VTLVIYVLVQLT  Condition not met
17      WLRVLFPSSPGD  Condition not met
18      LMLIPRLLVGAH  Condition not met
19      VVRGPSGAGRAG  Condition not met
20      CGVFAGRVGVRV  Condition not met
21      SHQTTKQKKKNL  Condition not met
22      PPLPPPPLLPAP      Condition met
23      DMAPNSQKGRAL  Condition not met
24      VLRGYRRVGVPP  Condition not met
25      VWCVFHVWSGRL  Condition not met
26      GYRGRITRLVNG  Condition not met
27      AHNRQRPEPDAR  Condition not met
28      GLGMWSVRCAGW  Condition not met
29      PSQRHQRPHREP  Condition not met
30      LSGRGVGSEGME      Condition met
31      CVMDKEYGYAIK      Condition met

----------
Test system: Saccharomyces cerevisiae
Test: protein stability index of tFT-peptide fusion (C-terminal peptide) (PSI (0-1 scale)); higher = more stable (slower turnover)
Settings: genetic background: wild type; temperature: 30 C
The entries below are paired with their reported protein stability index.
property.label: protein stability index

> print(dat)
    primary.sequence  result
 1      HALSVDPAFKQS    0.66
 2      CCYSSLRLMSFL   0.536
 3      RGGDGGGLRTRD   0.688
 4      CTKKNGYNGKNT   0.652
 5      PPGSFWLQARVR   0.705
 6      KEREGSRKETKH   0.694
 7      PPPSLPPLPSPS   0.725
 8      FRGRSSLSTSCG    0.69
 9      KNMNQIKKKNRE   0.664
10      YVCCMEGFLKPL   0.619
11      GGVECVRGTGGR   0.659
12      LPVPLPYFVSYF   0.607
13      PLSPSFAPPSPA   0.697
14      GPCRICNERSLI   0.613
15      MYPFKYGFASWV   0.583
16      GRLQRKQRKYKA   0.719
17      KVWGPAVPAVPP   0.666
18      RLCPWNLSDADL    0.71
19      FLLIFHSSPLPV   0.574
